Where these numbers come from: ChEMBL document CHEMBL3091451

Organism: Homo sapiens
ASSAY: Selectivity ratio of IC50 for mineralocorticoid receptor (unknown origin) to IC50 for glucocorticoid receptor (unknown origin)
MEASUREMENT_NAME: Ratio IC50

Consider the reported Ratio IC50 for these compounds:
Cc1cc(C)c(S(=O)(=O)NC(Cc2c[nH]c3cc(C)ccc23)C(F)(F)F)c(C)c1 (stereo not given)
1
Cc1cc(C)c(S(=O)(=O)NC(Cc2c[nH]c3c(C)cccc23)C(F)(F)F)c(C)c1 (stereo not given)
1
Cc1cc(C)c(S(=O)(=O)NC(Cc2c[nH]c3ccc(C#N)cc23)C(F)(F)F)c(C)c1 (stereo not given)
1
Cc1cc(C)c(S(=O)(=O)NC(Cc2c[nH]c3cccc(C)c23)C(F)(F)F)c(C)c1 (stereo not given)
1
Cc1cc(C)c(S(=O)(=O)NC(Cc2c[nH]c3cc(C#N)ccc23)C(F)(F)F)c(C)c1 (stereo not given)
1
Cc1cc(C)c(S(=O)(=O)NC(Cc2c[nH]c3ccc(C)cc23)C(F)(F)F)c(C)c1 (stereo not given)
1

(P) Cc1cc(C)c(S(=O)(=O)NC(Cc2c[nH]c3c(C#N)cccc23)C(F)(F)F)c(C)c1 (stereo not given)
(Q) CC[C@@H](Cn1cc(C#N)c2ccccc21)NS(=O)(=O)c1c(N)cc(Cl)cc1Cl
(R) CC(Cc1c[nH]c2ccccc12)NS(=O)(=O)c1c(N)cc(Cl)cc1Cl (stereo not given)
(S) Cc1cc(C)c(S(=O)(=O)NC(Cc2c[nH]c3c(C#N)cc(C)cc23)C(F)(F)F)c(C)c1 (stereo not given)
QUERY: Task for the reader: rank each entry by its Ratio IC50, from the minimum upward. # format: label list in the order the request specifies
RESULT: P, S, R, Q
(P: 1, S: 22, R: 102, Q: 330)

====

TARGET_OR_SYSTEM: Glucocorticoid receptor (Homo sapiens)
Sequence (P04150 whole entry): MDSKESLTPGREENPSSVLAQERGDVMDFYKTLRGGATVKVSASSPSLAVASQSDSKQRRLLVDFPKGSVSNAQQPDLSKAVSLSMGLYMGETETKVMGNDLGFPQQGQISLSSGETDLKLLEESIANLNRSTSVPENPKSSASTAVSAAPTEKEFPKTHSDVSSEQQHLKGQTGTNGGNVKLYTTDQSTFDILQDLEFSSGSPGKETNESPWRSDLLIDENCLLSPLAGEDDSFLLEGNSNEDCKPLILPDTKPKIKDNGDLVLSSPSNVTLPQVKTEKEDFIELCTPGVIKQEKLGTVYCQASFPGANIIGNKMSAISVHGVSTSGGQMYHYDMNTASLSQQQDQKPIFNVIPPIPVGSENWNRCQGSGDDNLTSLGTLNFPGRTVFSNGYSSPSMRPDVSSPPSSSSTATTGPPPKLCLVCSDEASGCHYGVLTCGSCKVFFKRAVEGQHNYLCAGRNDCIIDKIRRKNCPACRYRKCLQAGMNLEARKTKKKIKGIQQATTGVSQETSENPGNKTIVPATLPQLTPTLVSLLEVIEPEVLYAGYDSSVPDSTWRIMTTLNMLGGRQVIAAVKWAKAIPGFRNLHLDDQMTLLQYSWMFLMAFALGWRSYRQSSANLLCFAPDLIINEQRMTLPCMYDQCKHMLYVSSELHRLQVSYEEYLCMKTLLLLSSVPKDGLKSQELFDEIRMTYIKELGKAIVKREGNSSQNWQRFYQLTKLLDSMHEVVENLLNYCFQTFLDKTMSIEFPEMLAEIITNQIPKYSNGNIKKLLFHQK
ASSAY: Agonist activity at glucocorticoid receptor in HFF assessed as inhibition of IL-1-induced IL-6 production after 24 hrs
pIC50: −log10 of the molar value.
MEASUREMENT_NAME: pIC50

CC[C@@H](Cn1cc(C)c2ccccc21)NS(=O)(=O)c1c(N)cc(Cl)cc1Cl
8.00

(I) Cc1cc(C)c(S(=O)(=O)NC(Cc2c[nH]c3c(C#N)cc(C)cc23)C(F)(F)F)c(C)c1 (stereo not given)
(II) Cc1cc(C)c(S(=O)(=O)NC(Cc2c[nH]c3ccc(C)cc23)C(F)(F)F)c(C)c1 (stereo not given)
QUERY: Given I and II , report the one with the higher recorded pIC50. Write down the label of the entry you select.
RESULT: I
(I: 7.82, II: 6.68)
